The values you see were collected from ChEMBL document CHEMBL5291721.

target: Sodium channel protein type 5 subunit alpha (Homo sapiens); assay type: functional, cell-based; also: assay procedure not described here
Sequence (Q14524 whole entry): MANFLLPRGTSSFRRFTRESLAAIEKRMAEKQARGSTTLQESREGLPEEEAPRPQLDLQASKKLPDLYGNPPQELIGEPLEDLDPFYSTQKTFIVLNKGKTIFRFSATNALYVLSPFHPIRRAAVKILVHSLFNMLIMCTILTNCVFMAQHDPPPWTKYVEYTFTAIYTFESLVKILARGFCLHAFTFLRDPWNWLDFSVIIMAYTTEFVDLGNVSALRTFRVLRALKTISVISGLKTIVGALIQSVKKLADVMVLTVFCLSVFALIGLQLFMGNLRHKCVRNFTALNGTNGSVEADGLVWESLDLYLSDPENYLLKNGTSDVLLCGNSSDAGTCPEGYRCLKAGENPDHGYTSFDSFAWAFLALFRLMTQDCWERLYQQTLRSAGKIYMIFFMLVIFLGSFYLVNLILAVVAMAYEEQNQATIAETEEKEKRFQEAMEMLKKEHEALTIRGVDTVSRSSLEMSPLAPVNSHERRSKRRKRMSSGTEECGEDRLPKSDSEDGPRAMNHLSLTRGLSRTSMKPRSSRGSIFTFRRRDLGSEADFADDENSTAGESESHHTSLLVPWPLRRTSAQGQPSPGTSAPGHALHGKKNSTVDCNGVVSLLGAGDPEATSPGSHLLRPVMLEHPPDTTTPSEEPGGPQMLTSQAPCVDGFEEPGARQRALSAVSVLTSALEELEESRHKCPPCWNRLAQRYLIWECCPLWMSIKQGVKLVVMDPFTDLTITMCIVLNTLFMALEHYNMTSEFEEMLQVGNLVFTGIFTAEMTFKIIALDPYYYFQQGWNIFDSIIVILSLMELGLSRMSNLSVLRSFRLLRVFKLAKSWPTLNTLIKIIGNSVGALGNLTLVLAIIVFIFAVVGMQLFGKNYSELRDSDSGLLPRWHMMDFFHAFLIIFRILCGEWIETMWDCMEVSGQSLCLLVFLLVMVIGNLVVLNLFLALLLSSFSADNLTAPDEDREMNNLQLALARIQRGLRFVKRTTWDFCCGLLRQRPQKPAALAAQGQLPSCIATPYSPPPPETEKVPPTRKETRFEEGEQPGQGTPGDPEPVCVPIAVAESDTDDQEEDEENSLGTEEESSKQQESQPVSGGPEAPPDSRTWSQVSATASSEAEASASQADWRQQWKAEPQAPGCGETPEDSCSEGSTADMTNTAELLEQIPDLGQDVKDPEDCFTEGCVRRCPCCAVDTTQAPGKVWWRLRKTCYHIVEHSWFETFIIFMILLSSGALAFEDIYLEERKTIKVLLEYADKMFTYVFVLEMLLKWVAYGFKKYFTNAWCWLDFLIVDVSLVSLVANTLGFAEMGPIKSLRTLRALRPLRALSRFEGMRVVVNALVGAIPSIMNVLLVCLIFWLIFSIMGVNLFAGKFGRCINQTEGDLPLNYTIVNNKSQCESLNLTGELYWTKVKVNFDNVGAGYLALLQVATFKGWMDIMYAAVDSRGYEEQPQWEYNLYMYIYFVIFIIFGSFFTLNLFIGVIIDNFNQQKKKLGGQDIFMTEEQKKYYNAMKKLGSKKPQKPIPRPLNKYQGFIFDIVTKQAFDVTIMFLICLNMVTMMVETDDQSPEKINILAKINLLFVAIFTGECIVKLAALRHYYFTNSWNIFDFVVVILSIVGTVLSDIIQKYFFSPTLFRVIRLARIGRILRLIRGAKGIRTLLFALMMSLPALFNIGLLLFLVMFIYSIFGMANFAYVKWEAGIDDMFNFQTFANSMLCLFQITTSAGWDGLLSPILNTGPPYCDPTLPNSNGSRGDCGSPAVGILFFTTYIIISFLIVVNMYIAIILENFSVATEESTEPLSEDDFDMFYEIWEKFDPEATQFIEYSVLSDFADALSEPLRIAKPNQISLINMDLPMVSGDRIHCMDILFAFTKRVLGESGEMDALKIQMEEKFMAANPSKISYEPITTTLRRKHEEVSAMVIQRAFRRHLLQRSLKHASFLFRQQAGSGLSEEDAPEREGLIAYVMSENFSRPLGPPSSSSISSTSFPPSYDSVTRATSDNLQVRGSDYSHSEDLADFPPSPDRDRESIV
Catalogue of compounds with associated AC50
observable: AC50

| compound | systemName | measurement |
| --- | --- | --- |
| Cn1cnc2c(F)c(Nc3ccc(Br)cc3F)c(C(=O)NOCCO)cc21 [BINIMETINIB] | Sodium channel protein type 5 subunit alpha (Homo sapiens) | > 30 µM |
| C[C@H](CCC(=O)O)[C@H]1CC[C@H]2[C@@H]3[C@H](O)C[C@@H]4C[C@H](O)CC[C@]4(C)[C@H]3CC[C@]12C [CHENODIOL] | Sodium channel protein type 5 subunit alpha (Homo sapiens) | > 50 µM |
| CCC[C@@]1(CCc2ccccc2)CC(O)=C([C@H](CC)c2cccc(NS(=O)(=O)c3ccc(C(F)(F)F)cn3)c2)C(=O)O1 | Sodium channel protein type 5 subunit alpha (Homo sapiens) | > 50 µM |
| CCOC(=O)[C@H](CCc1ccccc1)N[C@@H](C)C(=O)N1Cc2ccccc2C[C@H]1C(=O)O | Sodium channel protein type 5 subunit alpha (Homo sapiens) | > 30 µM |
| CCCCCCOC(=O)NC(=N)c1ccc(NCc2nc3cc(C(=O)N(CCC(=O)OCC)c4ccccn4)ccc3n2C)cc1 [DABIGATRAN ETEXILATE] | Sodium channel protein type 5 subunit alpha (Homo sapiens) | 3 µM |
| C[C@@H]1CN(c2c(F)c(N)c3c(=O)c(C(=O)O)cn(C4CC4)c3c2F)C[C@H](C)N1 [SPARFLOXACIN] | Sodium channel protein type 5 subunit alpha (Homo sapiens) | > 50 µM |
| COc1cccc2c1C(=O)c1c(O)c3c(c(O)c1C2=O)C[C@@](O)(C(=O)CO)C[C@@H]3O[C@H]1C[C@H](N)[C@H](O)[C@H](C)O1 [DOXORUBICIN] | Sodium channel protein type 5 subunit alpha (Homo sapiens) | > 50 µM |
| CC(=O)Oc1ccccc1C(=O)O [ASPIRIN] | Sodium channel protein type 5 subunit alpha (Homo sapiens) | > 30 µM |
| CCCCCCCC(=O)CC[C@@H]1[C@@H](C/C=C\CCCC(=O)O)[C@@H](O)C[C@H]1O [UNOPROSTONE] | Sodium channel protein type 5 subunit alpha (Homo sapiens) | > 50 µM |
| CN1C2CCCC1CC(NC(=O)c1nn(C)c3ccccc13)C2 (stereo unspecified) [GRANISETRON] | Sodium channel protein type 5 subunit alpha (Homo sapiens) | > 30 µM |
| Nc1nnc(-c2cccc(Cl)c2Cl)c(N)n1 [LAMOTRIGINE] | Sodium channel protein type 5 subunit alpha (Homo sapiens) | > 50 µM |
| CN(C)CCCC1(c2ccc(F)cc2)OCc2cc(C#N)ccc21 (stereo unspecified) [CITALOPRAM] | Sodium channel protein type 5 subunit alpha (Homo sapiens) | > 30 µM |
| CC(C)(CO)c1cc2cc(NC(=O)C3(c4ccc5c(c4)OC(F)(F)O5)CC3)c(F)cc2n1C[C@@H](O)CO [TEZACAFTOR] | Sodium channel protein type 5 subunit alpha (Homo sapiens) | 42 µM |
| N#Cc1ccnc(N2C(=O)CC[C@H]2C(=O)N(c2cncc(F)c2)[C@H](C(=O)NC2CC(F)(F)C2)c2ccccc2Cl)c1 [IVOSIDENIB] | Sodium channel protein type 5 subunit alpha (Homo sapiens) | > 50 µM |
| COc1ccc(-n2nc(C(N)=O)c3c2C(=O)N(c2ccc(N4CCCCC4=O)cc2)CC3)cc1 [APIXABAN] | Sodium channel protein type 5 subunit alpha (Homo sapiens) | > 50 µM |
| CC(=O)NC[C@H]1CN(c2ccc(N3CCOCC3)c(F)c2)C(=O)O1 [LINEZOLID] | Sodium channel protein type 5 subunit alpha (Homo sapiens) | > 50 µM |
